Where do these numbers come from? They come from patent US20240317847A1.

experimentalTarget: T1, murine IL-11 (mouse, UniProt P47873 22-199)
T1 sequence: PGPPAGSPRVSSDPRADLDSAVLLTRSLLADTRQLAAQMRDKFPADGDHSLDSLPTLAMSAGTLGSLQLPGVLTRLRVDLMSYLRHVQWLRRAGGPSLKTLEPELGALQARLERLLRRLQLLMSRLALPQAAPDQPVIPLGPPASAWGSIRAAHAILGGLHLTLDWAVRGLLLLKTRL
experiment: cell-based or functional assay
measuredQuantity: IC50, RGA 1 (nM)
Supply the numeric figure in nM, leaving out any unit text.

[[record]]
binder = "TPP-31307 (antibody, IgG4, V domains shown) VH: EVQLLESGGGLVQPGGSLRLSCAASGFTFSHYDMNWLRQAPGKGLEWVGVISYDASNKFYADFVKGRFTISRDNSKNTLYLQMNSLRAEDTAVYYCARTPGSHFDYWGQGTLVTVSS VL: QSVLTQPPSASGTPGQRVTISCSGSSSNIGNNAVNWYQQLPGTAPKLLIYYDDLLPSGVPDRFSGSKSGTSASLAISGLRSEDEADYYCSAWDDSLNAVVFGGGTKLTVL"
measuredquantity = "IC50, RGA 1"
testvalue = 45


[ask] Indicate its recorded IC50, RGA 1; the binder in question is TPP-31303 (antibody, IgG4, V domains shown) VH: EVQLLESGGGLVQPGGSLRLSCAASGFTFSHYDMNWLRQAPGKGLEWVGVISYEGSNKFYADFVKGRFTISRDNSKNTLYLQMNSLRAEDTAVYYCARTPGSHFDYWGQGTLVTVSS VL: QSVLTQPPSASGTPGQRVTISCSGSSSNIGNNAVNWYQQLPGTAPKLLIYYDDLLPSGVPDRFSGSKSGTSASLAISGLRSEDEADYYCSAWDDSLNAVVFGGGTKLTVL
[reply] 4.38

[ask] Indicate its recorded IC50, RGA 1; the binder in question is TPP-31282 (antibody, IgG4, V domains shown) VH: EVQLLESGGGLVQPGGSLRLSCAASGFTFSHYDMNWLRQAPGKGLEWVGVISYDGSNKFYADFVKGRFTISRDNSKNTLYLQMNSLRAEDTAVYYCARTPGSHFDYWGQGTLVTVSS VL: QSVLTQPPSASGTPGQRVTISCSGSSSNIGNNAVNWYQQLPGTAPKLLIYYDNLLPSGVPDRFSGSKSGTSASLAISGLRSEDEADYYCSAWDDSLNGVVFGGGTKLTVL
[reply] 70
